# Tested on: NOMO-1
# Assay type: cell-based
# Experimental Setup: CD74 ADC with the named linker-payload, 5 days
Structures can show the parent of a compound that is named as a salt.
Note to self: use condition met only for NOMO-1 Amax readings below 60; a reading exactly at 60 still gets condition not met.

Study these solved cases before continuing.
COc1ccccc1-c1nccc(COc2ccccc2C[C@@H](Oc2ncnc3sc(-c4ccc(F)cc4)c(-c4ccc(OCCN5CC[N+](C)(Cc6ccc(NC(=O)[C@H](CCCNC(N)=O)NC(=O)[C@@H](NC(=O)CCOCCN7C(=O)C=CC7=O)C(C)C)cc6CN(C)C(=O)C[C@H](NC(=O)[C@@H]6O[C@H](O)[C@@H](O)[C@H](O)[C@H]6O)C(=O)O)CC5)c(Cl)c4C)c23)C(=O)O)n1 [L68-P1] = condition not met
COc1ccccc1-c1nccc(COc2ccccc2C[C@@H](Oc2ncnc3sc(-c4ccc(F)cc4)c(-c4ccc(OCCN5CC[N+](C)(Cc6ccc(NC(=O)[C@H](CCCNC(N)=O)NC(=O)[C@@H](NC(=O)CCOCCN7C(=O)C=CC7=O)C(C)C)cc6CN(C)C(=O)[C@H](CCCCNC(=O)CS(=O)(=O)O)NC(=O)CS(=O)(=O)O)CC5)c(Cl)c4C)c23)C(=O)O)n1 [L78-P1] = condition met
COCCOCCOCCOCCOCCOCCOCCOCCOCCOCCOCCOCCC(=O)N[C@@H](CCC(=O)O)C(=O)N(C)Cc1cc(NC(=O)[C@H](CCCNC(N)=O)NC(=O)[C@@H](NC(=O)CCOCCN2C(=O)C=CC2=O)C(C)C)ccc1C[N+]1(C)CCN(CCOc2ccc(-c3c(-c4ccc(F)cc4)sc4ncnc(O[C@H](Cc5ccccc5OCc5ccnc(-c6ccccc6OC)n5)C(=O)O)c34)c(C)c2Cl)CC1 [L72-P1] = condition met
COCCOCCOCCOCCOCCOCCOCCOCCOCCOCCOCCOCCOCCOCCOCCOCCOCCOCCOCCOCCOCCOCCOCCOCCC(=O)N(C)Cc1cc(NC(=O)[C@H](CCCNC(N)=O)NC(=O)[C@@H](NC(=O)CCOCCN2C(=O)C=CC2=O)C(C)C)ccc1C[N+]1(C)CCN(CCOc2ccc(-c3c(-c4ccc(F)cc4)sc4ncnc(O[C@H](Cc5ccccc5OCc5ccnc(-c6ccccc6OC)n5)C(=O)O)c34)c(C)c2Cl)CC1 [L30-P1] = condition not met
COc1ccccc1-c1nccc(COc2ccccc2C[C@@H](Oc2ncnc3sc(-c4ccc(F)cc4)c(-c4ccc(OCCN5CC[N+](C)(Cc6ccc(NC(=O)[C@H](CCCNC(N)=O)NC(=O)[C@@H](NC(=O)CCOCCN7C(=O)C=CC7=O)C(C)C)cc6CN(C)C(=O)[C@H](N)CS(=O)(=O)O)CC5)c(Cl)c4C)c23)C(=O)O)n1 [L86-P1] = condition not met

Pending molecule:
Given COc1ccccc1-c1nccc(COc2ccccc2C[C@@H](Oc2ncnc3sc(-c4ccc(F)cc4)c(-c4ccc(OCCN5CC[N+](C)(Cc6ccc(NC(=O)[C@H](CCCNC(N)=O)NC(=O)[C@@H](NC(=O)CCOCCN7C(=O)C=CC7=O)C(C)C)cc6COCc6cn(CCOC(=O)NS(=O)(=O)NCCOCCOCCO[C@@H]7O[C@H](CO)[C@@H](O)[C@H](O)[C@H]7O)nn6)CC5)c(Cl)c4C)c23)C(=O)O)n1 [L62-P1, trifluoroacetate] , is recorded NOMO-1 Amax strictly lower than 60? condition not met
